biological target: T1, Soluble IGF-1R (UniProt P08069 31-935, limits assumed)
T1 construct: extracellular domain; Bought reagent; also called sIGF-1R; insulin-like growth factor receptor
No end group written: not given here.
Threshold 3 ratio over background. ratio over background, IGF-1R below it: TRUE. ratio over background, IGF-1R at it or above: FALSE.

Known results for binders:
[
  {
    "binder": "AGSVTSFYDAMEQLVATGTSA [20E2A-3-A4-IGFR]",
    "qualitativeLabel": "TRUE"
  },
  {
    "binder": "LSCLAYSRHGIWRPSTDLGLGRSVGEGSVSTRWRGYDWFE [40F-4-D1-IGFR]",
    "qualitativeLabel": "FALSE"
  },
  {
    "binder": "VRGFQGGTVWPGYEWLRNAA (not fully specified (N-terminus, C-terminus)) [R20β-E8-IR]",
    "qualitativeLabel": "FALSE"
  }
]

Proceed to the following item.
Please determine if QSGSGDFYDWLSRLIRGNGDG (not fully specified (N-terminus, C-terminus)) [20E2Bβ-3-C7-IR] is below 3 ratio over background in terms of ratio over background, IGF-1R.
FALSE
